test system: Staphylococcus aureus; test: Bactericidal activity against Staphylococcus aureus ATCC 29213 at pH 4 after 1 hr by CLSI method; assay type: functional; details: ATCC 29213, 1 h
In this section we review reported MBC values for a set of compounds.
# unit: µg/mL | format: bare number

>>> measured_number("CC(C)(CCS(=O)(=O)CC(O)C(O)CO)N(Cl)Cl (stereo unspecified)")
1

Kindly consider the entry below.
Look up MBC of CC(C)(CS(=O)(=O)CCO)N(Cl)Cl and report it.
1

----------
MBC by entry:
system: Staphylococcus aureus; test: Bactericidal activity against Staphylococcus aureus ATCC 29213 at pH 4 after 1 hr by CLSI method; assay type: functional; conditions: ATCC 29213, 1 h
Value expressed in µg/mL; do not type the unit.

>>> measured_number("CC(C)(CCS(=O)(=O)CC(O)CO)N(Cl)Cl (configuration not stated)")
2

Dear colleague, please send me the reported MBC for CC(=O)OCC(O)CS(=O)(=O)CCC(C)(C)N(Cl)Cl (configuration not stated) when you can.
4

Complete the entry with MBC for CC(C)(CO)CS(=O)(=O)CCC(C)(C)N(Cl)Cl
2

Give the value of MBC reported for the following: CO[C@H]1O[C@H](CS(=O)(=O)CCC(C)(C)N(Cl)Cl)[C@@H](O)[C@H](O)[C@H]1O
8

Give reported MBC value for CC(C)(CCS(=O)(=O)C(CO)C(O)CO)N(Cl)Cl (configuration not stated)
2

Name the recorded MBC of the compound listed here: CC(C)(CCS(=O)(=O)CCC(O)CO)N(Cl)Cl (configuration not stated)
1

# return recorded MBC for input CN(CCO)S(=O)(=O)CCC(C)(C)N(Cl)Cl
1
